Reference for the values: patent US9550796B2

Recorded GI50 values (MV-4-11) are given below.
Unit nM implied. Number only.

// query Short answer please: GI50, MV-4-11, entry COc1ncccc1-c1cc2c([nH]1)C(c1ccc(Cl)cc1)N(c1cc(C)c3nnc(C)n3c1)C2=O (stereo not drawn) [Example 27]
// result 22.5

// query Quick check: GI50 on MV-4-11, item Cc1cc(N2C(=O)c3cc(-c4cccn(C)c4=O)[nH]c3C2c2ccc(Cl)cc2)cn2c(C)nnc12 (stereo not drawn) [Example 25] ?
// result 36.8

// query What value of GI50 on MV-4-11 does Cc1cc(N2C(=O)c3cc(C4CCOCC4)n(C)c3C2c2ccc(Cl)cc2)cn2c(C)nnc12 (stereo not drawn) [Example 121] have?
// result 54.9

// query Please state recorded GI50 (tested on MV-4-11) of Cc1cc(N2C(=O)c3cc[nH]c3C2c2ccc(Cl)cc2)cn2c(C)nnc12 (stereo not drawn) [Example 21]
// result 45.2

// query GI50 of Cn1c(-c2cccc(=O)n2C)cc2c1C(c1ccc(Cl)cc1)N(c1cc(Cl)c(=O)n(C)c1)C2=O (stereo not drawn) [Example 44] on MV-4-11?
// result 264

// query Query the reported GI50 for MV-4-11; item: COc1nccc(-c2cc3c(n2C)C(c2ccc(Cl)cc2)N(c2cc(Cl)c(=O)n(C)c2)C3=O)n1 (stereo not drawn) [Example 39]
// result 78.6

// query Enter reported GI50 observed with MV-4-11 for CC(=O)N1CC(n2cc(C3CC3)c3c2C(c2ccc(Cl)cc2)N(c2cc(C)c4nnn(C)c4n2)C3=O)C1 (stereo not drawn) [Example 105]
// result 0.341

// query Record Cc1cn(C)c2c1C(=O)N(c1cc(C)c3nnc(C)n3c1)C2c1ccc(Cl)cc1 (stereo not drawn) [Example 33] : what is its GI50 with MV-4-11?
// result 7.71

// query API: value(readout= GI50, system= MV-4-11, query= CC(=O)N1CC(n2cc(C3CC3)c3c2C(c2ccc(Cl)cc2)N(c2cc(C)c4nnc(C)n4c2)C3=O)C1 (stereo not drawn) [Example 17] )
// result 11.1

// query # query: GI50 | item Cn1cc(N2C(=O)c3cc(-c4cccc(=O)n4C)n(C4CC4)c3C2c2ccc(Cl)cc2)cc(Cl)c1=O (stereo not drawn) [Example 62] | system: MV-4-11
// result 226

// query Return GI50 measured with MV-4-11 given this compound: COc1ccc(-c2cc3c(n2C)C(c2ccc(Cl)cc2)N(c2cc(C)c(=O)n(C)c2)C3=O)cn1 (stereo not drawn) [Example 58]
// result 18.1

// query Checklist item: GI50 tested on MV-4-11, entry COc1ncc(-c2cc3c(n2C)C(c2ccc(Cl)cc2)N(c2cc(Cl)c(=O)n(C)c2)C3=O)cn1 (stereo not drawn) [Example 40] , value?
// result 83.9

// query Item: CC(=O)Nc1cn(C)c2c1C(=O)N(c1cc(C)c3nnn(C)c3c1)C2c1ccc(Cl)cc1 (stereo not drawn) [Example 113] Test system: MV-4-11 Read-out: GI50 Value: ?
// result 13.6

// query Value wanted: GI50 (MV-4-11) of entry Cc1cc(N2C(=O)c3ccn(C)c3C2c2ccc(F)cc2)cn(C)c1=O (stereo not drawn) [Example 82]
// result 104

// query # value lookup — system MV-4-11, readout GI50, item CC(=O)Nc1cn(C)c2c1C(=O)N(c1cc(C)c3nnn(C)c3n1)C2c1ccc(Cl)cc1 (stereo not drawn) [Example 96]
// result 10.9

###

Reported values of MV-4-11 TGI for individual entries
- System: MV-4-11
- MEASUREMENT_PROTOCOL: Cell growth inhibition assay (CellTiter-Glo), MV-4-11
- Type: cell-based, human
- TEST_SETTINGS: MV-4-11 cells, 4 days, total growth inhibition
Give the quantity in µM, number only.

# count of solved cases: 3
# MOLECULE, READOUT_TYPE, UNITS_LABEL, TEST_RESULT
records = [
    ("Cc1cc(N2C(=O)c3cc(-c4cnc(N(C)C)nc4)n(C)c3C2c2ccc(Cl)cc2)cn(C)c1=O (stereo not shown)", "MV-4-11 TGI", "µM", 0.0598),
    ("CC(=O)Nc1cn(C)c2c1C(=O)N(c1cc(C)c3nnc(C)n3c1)C2c1ccc(Cl)cc1 (stereo not shown)", "MV-4-11 TGI", "µM", 0.0526),
    ("Cc1cc(N2C(=O)c3cc(-c4cccc(=O)n4C)n(C4CC4)c3C2c2ccc(Cl)cc2)cn(C)c1=O (stereo not shown)", "MV-4-11 TGI", "µM", 0.16),
]

Now for another entry.
// query What MV-4-11 TGI appears in the records for this molecule with MV-4-11? CNC(=O)c1cn(C)c2c1C(=O)N(c1cc(C)c3nnc(C(F)F)n3n1)C2c1ccc(Cl)cc1 (stereo not shown)
// result 0.07835

###

- STUDY_TARGET: BRD4 (Homo sapiens (Human), UniProt O60885)
We begin with a simple list: items and their reported pIC50.
Quick note: pIC50 values are minus log10 of concentrations in mol/L.

Recorded results for 5 molecules are shown here.
# MOLECULE, STUDY_TARGET, READOUT_TYPE, TEST_RESULT
measured = [
    ("Cc1cc(N2C(=O)c3cc(-c4ccccn4)n(C)c3C2c2ccc(Cl)cc2)cn(C)c1=O (centres unmarked)", "BRD4 (Homo sapiens (Human), UniProt O60885)", "pIC50", 7.26),
    ("Cn1ccc2c1C(c1ccc(Cl)cc1)N(c1cc(Cl)c(=O)n(C)c1)C2=O (centres unmarked)", "BRD4 (Homo sapiens (Human), UniProt O60885)", "pIC50", 7.43),
    ("Cc1cc(N2C(=O)c3c(NC(=O)OC(C)(C)C)cn(C)c3C2c2ccc(Cl)cc2)nc2c1nnn2C (centres unmarked)", "BRD4 (Homo sapiens (Human), UniProt O60885)", "pIC50", 7.80),
    ("CNC(=O)Cn1cc(C)c2c1C(c1ccc(Cl)cc1)N(c1cc(C)c3nnc(C)n3c1)C2=O (centres unmarked)", "BRD4 (Homo sapiens (Human), UniProt O60885)", "pIC50", 7.07),
    ("COc1ncccc1-c1cc2c([nH]1)C(c1ccc(Cl)cc1)N(c1cc(C)c3nnc(C)n3c1)C2=O (centres unmarked)", "BRD4 (Homo sapiens (Human), UniProt O60885)", "pIC50", 7.77),
]

// query Fill in: pIC50 of Cc1cc(N2C(=O)c3c(C4CC4)cn(C4CN(C)C4)c3C2c2ccc(Cl)cc2)nc2c1nnn2C (centres unmarked) is ___
// result 7.92

// query Which pIC50 is reported for this molecule? Cc1c[nH]c2c1C(=O)N(c1cc(C)c3nnc(C)n3c1)C2c1ccc(Cl)cc1 (centres unmarked)
// result 7.85

// query pIC50 lookup needed for Cc1cn(C)c2c1C(=O)N(c1cc(C)c3nnn(C)c3c1)C2c1ccc(Cl)cc1 (centres unmarked) , thanks.
// result 7.80

###

The following compounds are shown together with reported GI50 values.
- Test system: MV-4-11
Dear colleague, please return just the value in nM, with no unit written.

Reference set (4 entries):
# COMPOUND, READOUT_TYPE, UNITS_LABEL, TEST_RESULT
measured = [
    ("COCC(=O)N1CC(n2cc(C)c3c2C(c2ccc(Cl)cc2)N(c2cc(C)c4nnc(C)n4c2)C3=O)C1 (stereo not shown) [Example 12]", "GI50", "nM", 74.8),
    ("CCOC(=O)Nc1cn(C)c2c1C(=O)N(c1cc(C)c3nnn(C)c3n1)C2c1ccc(Cl)cc1 (stereo not shown) [Example 97]", "GI50", "nM", 13.7),
    ("CCOC(=O)n1ccc2c1C(c1ccc(Cl)cc1)N(c1cc(C)c3nnc(C)n3c1)C2=O (stereo not shown) [Example 22]", "GI50", "nM", 46.8),
    ("Cc1cc(N2C(=O)c3cc(C4=CCOCC4)n(C)c3C2c2ccc(Cl)cc2)cn2c(C)nnc12 (stereo in doubt) [Example 137]", "GI50", "nM", 10),
]

// query Find GI50 (MV-4-11) for the entry Cc1cn(C)c2c1C(=O)N(c1cc(C)c(=O)n(C)c1)C2c1ccc(Cl)cc1 (stereo not shown) [Example 34]
// result 19.4

// query Please provide the recorded GI50 for Cc1cc(N2C(=O)c3c(NC(=O)CN(C)C)cn(C)c3C2c2ccc(Cl)cc2)cn2c(C)nnc12 (stereo not shown) [Example 116] , tested on MV-4-11.
// result 37.8

// query Identify the measured GI50 of Cc1cc(N2C(=O)c3c(C4CC4)cn(C4COC4)c3C2c2ccc(Cl)cc2)nc2c1nnn2C (stereo not shown) [Example 104] for MV-4-11.
// result 2.98

// query Report GI50 for Cc1cc(N2C(=O)c3cc(-c4cccnc4O)[nH]c3C2c2ccc(Cl)cc2)cn2c(C)nnc12 (stereo not shown) [Example 26] tested on MV-4-11.
// result 70

// query What reported GI50 corresponds to COc1ncccc1-c1cc2c(n1C)C(c1ccc(Cl)cc1)N(c1cc(C)c3nnc(C)n3c1)C2=O (stereo not shown) [Example 30] on MV-4-11?
// result 11.2

// query Tell me reported GI50 for Cn1c(-c2cccn(C)c2=O)cc2c1C(c1ccc(Cl)cc1)N(c1cc(Cl)c(=O)n(C)c1)C2=O (stereo not shown) [Example 43] , tested with MV-4-11.
// result 183

// query Report GI50 for Cc1cn(C)c2c1C(=O)N(c1cc(C)c3nnn(C)c3n1)C2c1ccc(Cl)cc1 (stereo not shown) [Example 32] tested on MV-4-11.
// result 111
